FYI, the data here is from PubChem BioAssay (NCATS).

# test: Redox Reaction Profiling qHTS: Assay Interference Panel against the NCATS CANVASS Library (AID 1347401); further: potency means the concentration at half of the fitted maximal effect
# settings: resazurin-DTT redox cycling, fluorescence, 15 min; series mostly up to 57.1 µM
Records with an inconclusive call do not appear. Calls of active or inactive are those of the source. The call rests on the fitted dose curve; in most records, active means well fitted activation curve with a large enough effect; inconclusive means small, poorly fitted or top-dose-only effect; inactive means no such curve, though single readings can be large or run the other way.

| compound | Potency |
| --- | --- |
| CC[C@H]1CN2CCc3c([nH]c4cccc(OC)c34)[C@@H]2C[C@@H]1/C(=C\OC)C(=O)OC | inactive |
| CC[C@@H]1CN2CCC3(Nc4cccc(OC)c4C3=O)[C@@H]2C[C@@H]1/C(=C\OC)C(=O)OC (some centres undefined) | inactive |
| COC1C(O)C(C)OC(OC2C(Oc3cccc4c(O)c5c(=O)oc6ccc(C)c7c(=O)oc(c34)c5c67)OC(C)C(O)C2O)C1O (centres undefined) | 2150 nM (active) |
| CCCC[C@@H](C)/C=C1/CN2CCC[C@H]2[C@@](C)(O)[C@@H]1O | inactive |

* * *

# test: qHTS Assay for Lipid Storage Modulators (AID 1519)
# settings: Drosophila S3 cells, BODIPY lipid droplet/cell ratio, laser cytometry; measured here: lipid channel max response; cells loaded with oleic acid
Results filed as inconclusive are left out.

| molecule | max response (%) |
| --- | --- |
| C/C=C1\C[C@H](C)[C@@](O)(CO)C(=O)OCC2=CCN3CC[C@@H](OC1=O)[C@@H]23 | 5.25 |
| CC1=C2C3OC(=O)[C@H](C)[C@H]3CC[C@@]2(C)C=CC1=O (stereo not given in full) | 29.5 |
| C[C@]12CCC3C(CC[C@H]4C[C@@H](O)CC[C@]34C)[C@@H]1CCC2=O (stereo not given in full) | -8.16 |
| c1ccc(N2CC[C@@]3(CCCNC3)C2)nc1 | 16.2 |
| C(#CCN1CCCC1)CN1CCCC1 | 10.3 |
| C#C[C@@]1(O)CC[C@@H]2[C@@H]3CCC4=CC(=O)CC[C@@]4(C)[C@H]3CC[C@]21C | -11.2 |
| CC1(C)C(O)CC(O)[C@]2(C)C1CC(O)[C@]1(C)C2CC[C@@]2(C)C(c3ccoc3)CC3OC312 (stereo not given in full) | -19.8 |
| CC(=O)OC1C[C@@]2(C)C(c3ccoc3)C[C@H]3O[C@@]32[C@@]2(C)C(=O)C(O)=C3C(C)(C)C(=O)C=C[C@]3(C)C12 (stereo not given in full) | -67.6 |
| c1ccc(N2CC3(CCNCC3)C2)nc1 | 14.7 |
| CN1CCCCC1c1ccc(-c2cccnc2)nc1 (stereo not given) | 21.9 |

* * *

# tested system: Ubiquitin carboxyl-terminal hydrolase 1 (Homo sapiens) (UniProt O94782)
# Sequence (O94782 whole entry, looked up): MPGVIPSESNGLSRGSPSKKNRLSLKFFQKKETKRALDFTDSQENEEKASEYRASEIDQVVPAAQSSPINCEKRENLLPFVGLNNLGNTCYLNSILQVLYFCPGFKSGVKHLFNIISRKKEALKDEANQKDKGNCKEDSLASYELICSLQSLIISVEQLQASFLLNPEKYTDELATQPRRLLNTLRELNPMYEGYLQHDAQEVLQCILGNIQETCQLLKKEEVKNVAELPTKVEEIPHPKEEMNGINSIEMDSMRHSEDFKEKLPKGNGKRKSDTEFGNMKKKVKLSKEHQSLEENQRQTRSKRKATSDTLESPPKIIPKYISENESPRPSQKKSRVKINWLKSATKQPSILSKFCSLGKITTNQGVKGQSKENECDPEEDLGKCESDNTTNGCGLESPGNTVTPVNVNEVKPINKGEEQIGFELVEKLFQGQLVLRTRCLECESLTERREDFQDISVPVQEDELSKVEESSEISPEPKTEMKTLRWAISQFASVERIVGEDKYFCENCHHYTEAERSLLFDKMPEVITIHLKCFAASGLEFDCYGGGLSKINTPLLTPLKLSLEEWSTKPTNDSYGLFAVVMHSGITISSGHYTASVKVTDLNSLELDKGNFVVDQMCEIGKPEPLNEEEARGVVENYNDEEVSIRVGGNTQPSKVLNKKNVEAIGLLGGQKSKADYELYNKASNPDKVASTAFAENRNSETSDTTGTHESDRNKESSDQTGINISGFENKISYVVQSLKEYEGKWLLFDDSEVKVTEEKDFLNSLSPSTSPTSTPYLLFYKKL
# test: Inhibitors of USP1/UAF1: Pilot qHTS (AID 504865); further: nearly all actives have a fitted effect of over 35% in size
# settings: purified USP1/UAF1, Ub-rhodamine cleavage fluorescence; series mostly up to 114 µM
Results filed as inconclusive are left out. Active and inactive are the calls of the source. Calls come from the whole dose curve; as a rule, active = well fitted inhibition curve with a large enough effect; inconclusive = small, poorly fitted or top-dose-only effect; inactive = flat fitted curve, though single readings scatter.
Outcomes: active, inactive

| molecule | group label |
| --- | --- |
| C[C@@]12CC[C@H]3[C@@H](CC[C@]4(O)C[C@H](O)CC[C@@]34C=O)[C@]1(O)CC[C@@H]2C1=CC(=O)OC1 | inactive |
| C=C1CC[C@H](O)C/C1=C/C=C1\CCC[C@]2(C)[C@H]1CC[C@H]2[C@@H](C)CCCC(C)C | inactive |
| CNC(C)C(O)c1ccccc1 (configuration not stated) | inactive |
| c1ccc(N=Nc2ccccc2)cc1 | inactive |
| CCN1C[C@]2(C)CC[C@H](OC)[C@@]34[C@@H]2[C@H](OC(C)=O)[C@]2(OCO[C@@]25C[C@@H](OC)[C@@H]2C[C@@]3(O)[C@H]5[C@@H]2OC)[C@H]14 | inactive |
| CN1CCc2cc3c(cc2[C@@H]1[C@@H]1OC(=O)c2c1ccc1c2OCO1)OCO3 | inactive |
| C[C@H]1CC[C@@]2(NC1)O[C@@H]1C[C@H]3[C@@H]4CC[C@@H]5C[C@@H](O)CC[C@@]5(C)[C@@H]4CC[C@]3(C)[C@@H]1[C@@H]2C | inactive |
| CC1(C)C(O)CC(O)[C@]2(C)C1CC(O)[C@]1(C)C2CC[C@@]2(C)C(c3ccoc3)CC3OC312 (some centres not stated) | inactive |
| C[C@H](NC(C)(C)C)C(=O)c1cccc(Cl)c1 | inactive |
| CN(C)[C@@H]1C(=O)C(C(N)=O)=C(O)[C@]2(O)C(=O)C3=C(O)c4c(O)cccc4[C@@](C)(O)[C@H]3[C@H](O)[C@@H]12 | active |
| CC([C@H](O)c1ccccc1)N(C)C (some centres not stated) | inactive |
| COC[C@]12CN(C=O)C3C4C(OC)C1[C@@]3(C1CC3(O)C(OC)C(O)C4(OC(C)=O)C1C3OC(=O)c1ccccc1)[C@@H](OC)CC2O (some centres not stated) | inactive |
